assay: Antiproliferative activity against human Molt 4/C8 cells assessed as cell growth inhibition; format: functional, cell-based; details: Molt4/C8
measuredAttribute: IC50 (nM)
One number for each entry, in nM.

Example entries begin here.
O=C1/C(=C/c2ccc(Cl)c(Cl)c2)CNC/C1=C\c1ccc(Cl)c(Cl)c1
810
O=C1/C(=C/c2ccccc2)CNC/C1=C\c1ccccc1
810
COc1ccc(/C=C2\CNC/C(=C\c3ccc(OC)cc3)C2=O)cc1
810
COc1cc(/C=C/C(=O)N2C/C(=C\c3ccccc3)C(=O)/C(=C/c3ccccc3)C2)cc(OC)c1OC
1600
O=C1/C(=C/c2ccc([N+](=O)[O-])cc2)CNC/C1=C\c1ccc([N+](=O)[O-])cc1
810
COc1ccc(/C=C/C(=O)N2C/C(=C\c3ccccc3)C(=O)/C(=C/c3ccccc3)C2)cc1OC
1600
COc1ccc(C(=O)/C=C/c2ccc(C(=O)N3C/C(=C\c4ccccc4)C(=O)/C(=C/c4ccccc4)C3)cc2)cc1OC
1600
C=CC(=O)N1C/C(=C\c2ccc(Cl)c(Cl)c2)C(=O)/C(=C/c2ccc(Cl)c(Cl)c2)C1
280

Proceed to the following item.
Field request: IC50 | item: `O=C1/C(=C/c2ccccc2)CN(C(=O)/C=C/c2ccc(Cl)cc2)C/C1=C\c1ccccc1`
1600

---

tested on: RPMI-7951; test: Growth inhibition of human RPMI-7951 cells measured after 72 hrs by microplate reader analysis; format: functional, cell-based; conditions: RPMI-7951, 72 h
measuredAttribute: IC50
Kindly report the value followed by its unit.

O=C1/C(=C/c2ccccc2F)CNC/C1=C\c1ccccc1F
0.7 µM

Would you mind telling me what IC50 value was observed for `CN1C/C(=C\c2ccccc2O)C(=O)/C(=C/c2ccccc2O)C1` ?
0.9 µM

---

test system: AGS; test: Antiproliferative activity against human AGS cells assessed as cell growth inhibition measured upto 72 hrs by MTT assay; assay type: functional, cell-based
measuredAttribute: pIC50
Answers are plain numbers, as −log10 of the molar value.

Worked examples, 2 compounds total:
C#CCOc1ccc(/C=C2\CCC/C(=C\c3ccc(OCC#C)cc3)C2=O)cc1
6.14
CCOc1ccc(/C=C2\CCC/C(=C\c3ccc(OCC)c(OC)c3)C2=O)cc1OC
6.14

Given the entry `C#CCOc1ccc(/C=C2\CCC/C(=C\c3ccc(OCC#C)c(OC)c3)C2=O)cc1OC` , report its measured pIC50.
6.25

---

Please respond with reported IC50 for every item in the list.
tested on: L1210; assay: Antiproliferative activity against mouse L1210 cells assessed as cell growth inhibition measured after 72 hrs by MTT assay; assay type: functional, cell-based; details: L1210, 72 h
Numbers only, in nM.

Could I get IC50 for every one of these entries?
1. COc1cc(/C=C2\CC(c3ccccc3)C/C(=C\c3cc(OC)c(OC)c(OC)c3)C2=O)cc(OC)c1OC (configuration not stated)
2. O=C1/C(=C/c2ccc([N+](=O)[O-])cc2)CC(c2ccccc2)C/C1=C\c1ccc([N+](=O)[O-])cc1 (configuration not stated)

1: 120; 2: 350

---

assay: Antiproliferative activity against human KATO III stomach cancer cell line assessed as cell growth inhibition by MTT assay; format: functional, cell-based
measuredAttribute: IC50 (µM)
Give bare numbers, in µM.

Query (molecule): `COc1cc(/C=C/C(=O)/C=C/c2ccc(O)c(OC)c2)ccc1O` ; field requested: IC50
5.98
